Measurement Target: Mushroom tyrosinase (mTyr) (Agaricus bisporus, UniProt C7FF04)
Sequence (C7FF04 1-392): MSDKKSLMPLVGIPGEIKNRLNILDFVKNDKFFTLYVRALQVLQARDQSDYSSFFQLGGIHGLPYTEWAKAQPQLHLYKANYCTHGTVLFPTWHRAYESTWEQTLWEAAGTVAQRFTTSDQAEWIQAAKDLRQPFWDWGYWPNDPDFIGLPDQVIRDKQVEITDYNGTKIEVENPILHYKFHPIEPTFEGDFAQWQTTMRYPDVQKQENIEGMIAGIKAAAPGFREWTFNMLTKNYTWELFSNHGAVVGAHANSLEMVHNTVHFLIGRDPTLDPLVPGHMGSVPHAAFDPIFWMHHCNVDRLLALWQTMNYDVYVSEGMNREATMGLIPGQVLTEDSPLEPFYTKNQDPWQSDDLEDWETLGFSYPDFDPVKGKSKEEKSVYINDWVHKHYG
Assay Metric: Ki (nM)
One number for each entry, in nM.

Which measured Ki value corresponds to O=C(C=Cc1ccc(O)c(O)c1)OCC1OC(Oc2ccc(O)cc2)C(O)C(O)C1O (stereo not shown) ?
1340
